target: Calmodulin-1 (Homo sapiens); experiment: calcium-bound CALM1 binders on microarrays, profiling panel, artefact control for SMM control-protein annotation, biochemical, small-molecule microarray, Cy5-labelled CALM1, plus calcium (AID 1112); details: Cy5-CALM1 binding fluorescence, higher = more signal;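 further: score merges spot fluorescence with signal to noise from triplicate slides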
# key: entry, value: composite z-score
Output spec: single numeric token, no unit.

For orientation, consider the following solved cases.
[N-]=[N+]=NCc1ccccc1C[C@@]1(C(=O)NCC(O)CO)N=C(c2ccc(OCCCO)cc2)O[C@@H]1c1ccccc1CN=[N+]=[N-] (some centres not stated); 0.876
N#Cc1ccc(NN2C(C(O)c3ccc([N+](=O)[O-])cc3)C=CC3C(=O)N(c4ccccc4)C(=O)C32)cc1 (configuration not stated); 0.235
C=CCC(OC(C)=O)[C@@H]1[C@@H](N(Cc2ccc(-c3cccc(C(F)(F)F)c3)o2)C(=O)c2ccc(C)cc2)c2cc(OCCCO)ccc2N1C(=O)c1ccc(-c2ccccc2)cc1 (some centres not stated); -0.147

Short answer on Calmodulin-1 (Homo sapiens) for C=CCNC(=O)[C@@H]1[C@H]2C(=O)O[C@H](c3ccccc3)[C@H](c3ccccc3)N2[C@H](c2ccc(O)cc2)[C@@]12C(=O)N(C(=O)OCCOC)c1ccccc12 , composite z-score: -0.42

Short answer on Calmodulin-1 (Homo sapiens) for CCOC(=O)C1=CCC(c2ccc(C#N)cc2)N(S(=O)(=O)c2ccc(C)cc2)C1 (configuration not stated) , composite z-score: 0.536

Short answer on Calmodulin-1 (Homo sapiens) for COC(=O)[C@@]1(Cc2ccc(F)cc2)[C@H]2c3cc(C(=O)N(C)C)n(CCc4ccccn4)c3C[C@H]2CN1C(=O)c1ccccc1 , composite z-score: -0.47

Short answer on Calmodulin-1 (Homo sapiens) for C=C(COC)C(=O)CC[C@H](OC(C)=O)c1cccc(OCCO)c1 , composite z-score: -0.773

* * *

# key: entry, value: composite z-score
target: Torsin-1A-interacting protein 1 (Homo sapiens) (UniProt Q5JTV8); experiment: LAP1 binders from COS7 cell lysate, primary screen, small-molecule microarray, 635/667 nm fluorescence (AID 1116); conditions: COS7-hLAP1 lysate binding, 635 nm fluorescence, higher = more signal
Sequence (Q5JTV8 whole entry, looked up): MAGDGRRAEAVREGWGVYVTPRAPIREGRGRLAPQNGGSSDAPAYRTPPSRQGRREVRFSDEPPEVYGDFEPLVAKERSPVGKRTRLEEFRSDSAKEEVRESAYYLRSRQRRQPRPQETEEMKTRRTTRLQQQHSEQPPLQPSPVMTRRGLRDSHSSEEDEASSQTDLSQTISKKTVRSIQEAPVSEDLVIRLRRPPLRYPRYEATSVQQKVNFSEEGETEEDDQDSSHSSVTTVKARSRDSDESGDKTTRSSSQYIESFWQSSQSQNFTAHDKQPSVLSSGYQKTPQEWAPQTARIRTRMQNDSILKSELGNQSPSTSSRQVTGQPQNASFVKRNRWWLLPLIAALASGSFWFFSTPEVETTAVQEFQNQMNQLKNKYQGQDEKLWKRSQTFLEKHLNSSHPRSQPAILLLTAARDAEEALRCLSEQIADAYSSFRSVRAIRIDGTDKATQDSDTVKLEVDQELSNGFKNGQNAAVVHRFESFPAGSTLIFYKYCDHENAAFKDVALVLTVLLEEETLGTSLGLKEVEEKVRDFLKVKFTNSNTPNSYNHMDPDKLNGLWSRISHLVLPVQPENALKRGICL
Output spec: single numeric token, no unit.

For orientation, consider the following solved cases.
COC(=O)[C@@]1(Cc2ccc(OC)cc2)[C@H]2c3cc(C(=O)N4CCCC4)n(Cc4cc(F)cc5c4OCOC5)c3C[C@H]2CN1C(=O)c1ccccc1; 0.831
CC(C)(C)OC(=O)CC[C@@]1(C(=O)O)N=C(c2ccc(OCCCO)cc2)O[C@@H]1c1ccccc1N=[N+]=[N-]; 1.06
CCOC(=O)[C@H]1C/C=C/C[C@H](C(=O)OCC)C(=O)O[C@H]2[C@@H](OC)O[C@H](CO)[C@@H](OC(=O)Nc3ccc4c(c3)OCO4)[C@@H]2OC1=O; 0.591
COc1ccc(C(=O)Nc2cccc(CN3C(=O)[C@@]4(O[C@@H](CCn5cc(CCO)nn5)[C@H]([Si](C)(C)c5ccc(OC)cc5)[C@H]4C)c4ccccc43)c2)cc1; 0.602

Recorded composite z-score (molecule C=CCOC(=O)[C@@H]1[C@H]2C(=O)O[C@H](c3ccccc3)[C@H](c3ccccc3)N2[C@H](c2ccc(OCCOC(=O)[C@@H]3C[C@@H]4C(=O)NCC(=O)N4[C@@H]3c3cccc(OCCO)c3)cc2)[C@@]12C(=O)Nc1ccc(I)cc12 ): -1.86

Recorded composite z-score (molecule C=CC[C@@]1(C(=O)O)N=C(c2ccc(OCCCO)cc2)O[C@@H]1c1ccccc1N=[N+]=[N-] ): 1.02

Recorded composite z-score (molecule CC(C)CNC(=O)[C@@]1(c2ccc([N+](=O)[O-])cc2)CC(=O)N(CC23CC4CC(CC(C4)C2)C3)[C@@H]1c1ccc(CO)cc1I ): 0.798

Recorded composite z-score (molecule O=C(O)[C@@]1(Cc2ccccc2)N=C(c2ccc(OCCCO)cc2)O[C@H]1c1ccccc1 ): -0.514

Recorded composite z-score (molecule O=C1O[C@@H](c2ccccc2)[C@@H](c2ccccc2)N2[C@@H](c3ccccc3OCCO)[C@]3(C(=O)Nc4ccc(C#CC5(O)CCCCCC5)cc43)[C@@H](C(=O)Nc3nc4ccccc4s3)[C@H]12 ): 0.367

Recorded composite z-score (molecule O=c1oc(-c2ccccc2)nc2cc(Br)ccc12 ): 0.503

Recorded composite z-score (molecule COCCOC(=O)N1C(=O)[C@@]2(c3cc(C#CCNC(N)=O)ccc31)[C@H](C(=O)N1CCN(c3ncccn3)CC1)[C@H]1C(=O)O[C@H](c3ccccc3)[C@H](c3ccccc3)N1[C@@H]2c1ccccc1OCCO ): 0.82

Recorded composite z-score (molecule O=C1O[C@H](c2ccccc2)[C@H](c2ccccc2)N2[C@H]1[C@@H](C(=O)O)[C@]1(C(=O)Nc3ccc(C#CC4(O)CCCCCC4)cc31)[C@H]2c1ccc(OCCO)cc1 ): 0.535

Recorded composite z-score (molecule CCCCCN1CC=CC23O[C@@H]4/C=C\CCCOC(=O)C4[C@H]2C(=O)N(CCCCCCO)[C@@H]3C1=O (stereo partly drawn) ): 1.09

* * *

target: Epidermal growth factor receptor (Homo sapiens) (UniProt P00533); assay: EGFR binders on small-molecule microarrays, primary screen, biochemical, small-molecule microarray, 635 nm fluorescence (AID 1104); conditions: EGFR binding, higher = more signal;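 further: score merges 667 nm emission intensity with spot signal to noise over triplicate slides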
Sequence (P00533 whole entry, looked up): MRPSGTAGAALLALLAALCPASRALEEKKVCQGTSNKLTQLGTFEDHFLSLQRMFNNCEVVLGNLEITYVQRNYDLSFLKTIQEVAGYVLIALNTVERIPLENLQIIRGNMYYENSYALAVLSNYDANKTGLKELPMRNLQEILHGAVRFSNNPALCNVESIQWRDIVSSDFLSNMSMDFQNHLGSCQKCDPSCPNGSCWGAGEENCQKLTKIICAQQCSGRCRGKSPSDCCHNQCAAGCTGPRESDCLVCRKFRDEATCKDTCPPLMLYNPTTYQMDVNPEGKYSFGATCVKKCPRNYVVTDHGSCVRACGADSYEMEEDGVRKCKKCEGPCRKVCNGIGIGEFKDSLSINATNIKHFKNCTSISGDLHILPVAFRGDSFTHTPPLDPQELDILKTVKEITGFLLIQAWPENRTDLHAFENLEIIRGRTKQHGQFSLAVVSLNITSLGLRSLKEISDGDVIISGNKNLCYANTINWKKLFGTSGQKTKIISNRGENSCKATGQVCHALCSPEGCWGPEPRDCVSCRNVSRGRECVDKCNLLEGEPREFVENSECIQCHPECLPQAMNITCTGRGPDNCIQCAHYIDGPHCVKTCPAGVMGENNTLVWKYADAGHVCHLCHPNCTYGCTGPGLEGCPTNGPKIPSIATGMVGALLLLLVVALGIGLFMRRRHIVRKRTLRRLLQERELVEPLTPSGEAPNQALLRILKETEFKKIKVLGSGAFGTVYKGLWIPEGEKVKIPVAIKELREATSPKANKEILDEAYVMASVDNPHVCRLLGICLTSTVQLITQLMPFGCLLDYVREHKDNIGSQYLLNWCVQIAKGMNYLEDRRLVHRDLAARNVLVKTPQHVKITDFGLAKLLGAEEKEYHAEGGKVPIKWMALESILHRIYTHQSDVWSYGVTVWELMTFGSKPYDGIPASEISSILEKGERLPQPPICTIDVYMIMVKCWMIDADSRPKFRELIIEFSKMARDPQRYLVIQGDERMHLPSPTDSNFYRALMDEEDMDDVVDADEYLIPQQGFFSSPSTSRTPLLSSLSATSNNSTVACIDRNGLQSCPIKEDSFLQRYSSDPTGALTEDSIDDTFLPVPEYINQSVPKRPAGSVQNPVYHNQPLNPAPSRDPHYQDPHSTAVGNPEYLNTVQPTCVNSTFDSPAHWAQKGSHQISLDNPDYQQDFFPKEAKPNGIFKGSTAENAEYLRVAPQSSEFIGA
measurement kind: composite z-score
Output spec: single numeric token, no unit.

For orientation, consider the following solved cases.
CC(C)(C)OC(=O)CC[C@@]1(C(=O)NCCN2CCOCC2)N=C(c2ccc(OCCCO)cc2)O[C@@H]1c1ccccc1; 0.335
Cc1ccc(S[C@]2(C(=O)NCc3ccccc3)CC(=O)N(Cc3ccccc3Cl)[C@@H]2c2ccc(CO)cc2I)cc1; -1.17
C=CCNC(=O)[C@@H]1[C@H]2C(=O)O[C@H](c3ccccc3)[C@H](c3ccccc3)N2[C@H](c2ccc(O)cc2)[C@@]12C(=O)N(C(=O)OCCOC)c1ccccc12; -0.405
C=C(COC)C(=O)CC[C@@H](OC(=O)c1cccnc1)c1ccc(CO)o1; 0.182
CC(C)N1CC=CC23O[C@@H]4C=CCOC(=O)[C@@H]4[C@H]2C(=O)N(CCO)[C@@H]3C1=O (stereo not given in full); -0.859
[N-]=[N+]=NCc1ccccc1C[C@]1(C(=O)NCCN2CCOCC2)N=C(c2ccc(OCCCO)cc2)O[C@H]1c1ccccc1N=[N+]=[N-]; 0.294
O=C1C=CC(=O)[C@@H]2CC(COc3ccccc3)=C3[C@@H](CCc4ccccc4)OB(O)C[C@@H]3[C@H]12; 0.515
Cc1ccc([C@H]2[C@H](C(=O)O)[C@H](Sc3ccccc3)[C@@H](C(C)C)N2S(=O)(=O)c2ccc(C)cc2)cc1; 0.151
CCOC(=O)C1=CCC(c2ccc([N+](=O)[O-])cc2)N(S(=O)(=O)c2ccc(C)cc2)C1 (stereo not given); -0.356
Cc1ccc(F)cc1S(=O)(=O)N[C@@H]1CCN(Cc2ccc(-c3ccccc3)cc2)C1; 0.156

Please turn your attention to the following entry.
Recorded composite z-score (compound CCCN1C(=O)[C@]2(COC(c3ccc(OCCCO)cc3)=N2)Cc2ccccc21 ): -0.542

* * *

assay: basal RPMI8226 mitochondrial membrane potential changes, profiling panel, cell-based, JC-1 fluorescence, 24 h, 100 nL compound (AID 1169); settings: RPMI8226 myeloma, JC-1 mitochondrial potential fluorescence, higher = more signal; further: test concentration not given here
measurement kind: z-score
Output spec: single numeric token, no unit.

COCCOC(=O)N1C(=O)[C@@]2(c3cc(C#CCNC(N)=O)ccc31)[C@H](C(=O)N1CCN(c3ncccn3)CC1)[C@H]1C(=O)O[C@H](c3ccccc3)[C@H](c3ccccc3)N1[C@@H]2c1ccccc1OCCO; -1.09

Recorded z-score (compound CC(C)CNC(=O)[C@@]1(c2ccc([N+](=O)[O-])cc2)CC(=O)N(CC23CC4CC(CC(C4)C2)C3)[C@@H]1c1ccc(CO)cc1I ): -0.948

Recorded z-score (compound CN1C=C(C(=O)OCCS(C)(=O)=O)C(C(=O)OCCS(C)(=O)=O)=CC(CCCO)=CC1C1CC1 (stereo not drawn) ): 0.326

Recorded z-score (compound COC(=O)C(CC#Cc1ccc2c(c1)[C@]1(C(=O)N2)[C@H](C(=O)NC[C@H](O)c2ccccc2)[C@H]2C(=O)O[C@H](c3ccccc3)[C@H](c3ccccc3)N2[C@@H]1c1ccc(OCCO)cc1)C(=O)OC ): -0.94

Recorded z-score (compound COC(=O)c1ccc(C23CC2(C(NP(=O)(c2ccccc2)c2ccccc2)c2ccccc2)C3)cc1 (stereo not drawn) ): -0.369

Recorded z-score (compound Cc1cc(C)cc(N2C(=O)CS(=O)(=O)C2c2cccc([N+](=O)[O-])c2)c1 (stereo not drawn) ): -0.327

Recorded z-score (compound COc1ccc(C(=O)Nc2cccc(CN3C(=O)[C@@]4(O[C@@H](CCn5cc(CCO)nn5)[C@H]([Si](C)(C)c5ccc(OC)cc5)[C@H]4C)c4ccccc43)c2)cc1 ): -0.136

Recorded z-score (compound COc1ccc(CCNC(=O)[C@@]2(c3ccc([N+](=O)[O-])cc3)CC(=O)N(CC34CC5CC(CC(C5)C3)C4)[C@@H]2c2ccc(CO)cc2)cc1 ): -0.857

Recorded z-score (compound CCOC(=O)[C@H]1C/C=C/C[C@H](C(=O)OCC)C(=O)O[C@H]2[C@@H](OC)O[C@H](CO)[C@@H](OC(=O)Nc3ccc4c(c3)OCO4)[C@@H]2OC1=O ): -0.975

Recorded z-score (compound CCC[C@@H]1C=C(C(=O)O)[C@H](c2ccc(C)cc2)N1S(=O)(=O)c1ccc(C)cc1 ): -0.131

Recorded z-score (compound CCOC(=O)C1=CC[C@@H](c2ccccc2Cl)N(S(=O)(=O)c2ccc(C)cc2)C1 ): -0.329
